Biological target: PAK4 Catalytic Domain (Homo sapiens)
Construct: For all of them, we expressed and purified the catalytic domain separately; His-tag; made in house; host or cells: Escherichia coli
Sequence (O96013 321-572 limits assumed): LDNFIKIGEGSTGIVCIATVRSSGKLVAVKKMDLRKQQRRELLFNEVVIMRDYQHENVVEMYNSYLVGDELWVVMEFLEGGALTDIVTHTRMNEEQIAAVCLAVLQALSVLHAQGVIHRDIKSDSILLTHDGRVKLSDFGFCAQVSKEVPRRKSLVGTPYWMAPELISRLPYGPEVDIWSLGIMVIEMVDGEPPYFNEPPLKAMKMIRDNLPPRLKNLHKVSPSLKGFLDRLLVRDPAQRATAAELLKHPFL
Test: Differential Scanning Fluorimetry (DSF) Tm shift
Format: binding
Details: 2 µM protein, 10 µM inhibitor, average of 3 experiments, each in duplicate
The label depends only on Melting temperature (Tm) shift: Criterion met if it is at least 0.8 degrees Celcius, Criterion not met if it is smaller.

Illustrative cases are given below, each with its answer.
NC(=O)Nc1cc(-c2ccccc2)sc1C(N)=O [IKK-2 Inhibitor XI] | Criterion met
O=C(c1cc2cc(O)ccc2[nH]1)c1cc2cc(O)ccc2[nH]1 [Flt-3 Inhibitor II] | Criterion met

[Q] Given the entry O=C1NC(=O)C(=Cc2ccc(-c3ccc(F)cc3O)o2)S1 [PI 3-Kγ/CKII Inhibitor] , answer whether its Melting temperature (Tm) shift meets or surpasses 0.8 degrees Celcius.
[A] Criterion met

----------
Biological target: FES Catalytic Domain+SH2 (Homo sapiens, UniProt P07332)
Construct: for 8, we also made a longer version containing one or more additional domains; His-tag; made in house; host or cells: Escherichia coli
Sequence (P07332 448-822 limits assumed): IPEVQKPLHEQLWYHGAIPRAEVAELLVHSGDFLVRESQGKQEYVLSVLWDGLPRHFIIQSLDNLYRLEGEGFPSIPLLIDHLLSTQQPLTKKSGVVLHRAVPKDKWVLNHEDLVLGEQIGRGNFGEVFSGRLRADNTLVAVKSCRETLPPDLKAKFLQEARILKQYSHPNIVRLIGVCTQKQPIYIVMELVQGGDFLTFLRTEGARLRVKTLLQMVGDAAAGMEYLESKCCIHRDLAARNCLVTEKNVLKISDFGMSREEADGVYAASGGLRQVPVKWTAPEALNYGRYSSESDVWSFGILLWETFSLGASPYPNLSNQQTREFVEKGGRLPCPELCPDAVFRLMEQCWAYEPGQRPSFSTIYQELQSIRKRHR
Assay: Differential Scanning Fluorimetry (DSF) Tm shift
Type: binding
Conditions: 2 µM protein, 10 µM inhibitor, average of 3 experiments, each in duplicate
QUANTITY_KIND: Melting temperature (Tm) shift (degrees Celcius)
Use degrees Celcius as the unit, but write only the number.

Here is how some molecules turned out for Melting temperature (Tm) shift.
O=C1c2ccccc2-c2n[nH]c3cccc1c23 [JNK Inhibitor II] | 0.9
Cl.Cl.O=S(=O)(NCCNC/C=C/c1ccc(Br)cc1)c1cccc2cnccc12 [H-89, Dihydrochloride] | 0.2
Cn1cc(/C=C2\C(=O)Nc3ccc(S(N)(=O)=O)cc32)c2ccccc21 [Syk Inhibitor] | 0.4
O=C1NC(=O)c2c1c1c3ccccc3[nH]c1n1cncc21 [Isogranulatimide] | 0.5
O=C1NC(=O)C(=Cc2ccc(-c3ccc(F)cc3O)o2)S1 [PI 3-Kγ/CKII Inhibitor] | 0.5
CC(C)n1cnc2c(NCc3ccccc3O)nc(NCCCO)nc21 [Cdk Inhibitor, p35] | 0.2
COc1cc2ncnc(Nc3ccc(Oc4ccccc4)cc3)c2cc1OC [Src Kinase Inhibitor I] | 0.1
NC(=O)Nc1sc(-c2ccc(F)cc2)cc1C(N)=O [IKK-2 Inhibitor IV] | 0.5

[Q] For the molecule N#CCCc1ccc2c(c1)-c1[nH]c3ccc([N+](=O)[O-])cc3c1CC(=O)N2 [Alsterpaullone, 2-Cyanoethyl] , give its measured Melting temperature (Tm) shift value.
[A] 0.3

----------
Target: STK3 Catalytic Domain (Homo sapiens, UniProt Q13188)
Construct: For all of them, we expressed and purified the catalytic domain separately; His-tag; made in house; host or cells: Escherichia coli
Sequence (Q13188 27-278 limits assumed): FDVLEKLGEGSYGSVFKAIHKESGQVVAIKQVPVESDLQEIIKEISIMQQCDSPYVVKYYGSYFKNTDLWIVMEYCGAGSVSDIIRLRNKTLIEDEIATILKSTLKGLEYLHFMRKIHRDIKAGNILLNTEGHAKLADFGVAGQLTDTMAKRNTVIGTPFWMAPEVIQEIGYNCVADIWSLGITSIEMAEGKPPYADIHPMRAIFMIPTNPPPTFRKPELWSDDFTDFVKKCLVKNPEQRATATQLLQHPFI
Experiment: Differential Scanning Fluorimetry (DSF) Tm shift
Type: binding
Settings: 2 µM protein, 10 µM inhibitor, average of 3 experiments, each in duplicate
The label depends only on Melting temperature (Tm) shift: met if it is at least 2 degrees Celcius, not met if it is smaller.

CCn1cnc2c(Nc3cccc(Cl)c3)nc(N[C@H]3CCCC[C@H]3N)nc21 [Cdk1 Inhibitor, CGP74514A] | not met
COc1cc2nccc(Oc3ccc(NC(=S)NC(=O)c4ccccc4C)cc3)c2cc1OC | not met
CN(C)c1nc2c(Br)c(Br)c(Br)c(Br)c2[nH]1 | not met

[Q] Given the entry O=C1NC(=O)/C(=C/c2ccc3nccnc3c2)S1 , answer whether its Melting temperature (Tm) shift meets or surpasses 2 degrees Celcius.
[A] not met

[Q] Given the entry O=C1Nc2ccc3ncsc3c2/C1=C/c1cnc[nH]1 , answer whether its Melting temperature (Tm) shift meets or surpasses 2 degrees Celcius.
[A] met

[Q] Given the entry Cc1cc(C=C2C(=O)C=CC2=O)cc(C)c1O , answer whether its Melting temperature (Tm) shift meets or surpasses 2 degrees Celcius.
[A] not met

[Q] Given the entry COc1cc(Nc2ncc3ccn(-c4cccc(CCC#N)c4)c3n2)cc(OC)c1OC , answer whether its Melting temperature (Tm) shift meets or surpasses 2 degrees Celcius.
[A] met

----------
Biological target: FAK2 Catalytic Domain (Homo sapiens, UniProt Q14289)
Construct: For all of them, we expressed and purified the catalytic domain separately; His-tag; made in house; host or cells: Escherichia coli
Sequence (Q14289 425-683 limits assumed): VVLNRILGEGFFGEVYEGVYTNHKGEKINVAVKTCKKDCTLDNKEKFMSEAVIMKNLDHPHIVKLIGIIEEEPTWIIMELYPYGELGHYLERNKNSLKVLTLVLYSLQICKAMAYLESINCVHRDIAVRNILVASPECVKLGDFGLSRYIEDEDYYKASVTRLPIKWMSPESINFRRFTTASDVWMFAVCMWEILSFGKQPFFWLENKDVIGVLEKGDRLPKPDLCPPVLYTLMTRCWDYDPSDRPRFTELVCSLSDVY
Test: Differential Scanning Fluorimetry (DSF) Tm shift
Assay type: binding
Conditions: 2 µM protein, 10 µM inhibitor, average of 3 experiments, each in duplicate
The label depends only on Melting temperature (Tm) shift: t if it is at least 1 degrees Celcius, f if it is smaller.

Illustrative cases are given below, each with its answer.
O.O=C1NCCc2[nH]c(-c3ccnc(-c4cnc5ccccc5c4)c3)cc21 | f
c1nc2nc(Nc3ccc(N4CCOCC4)cc3)nc(NC3CCCCC3)c2[nH]1 | t

[Q] Given the entry O=C(c1cc2cc(O)ccc2[nH]1)c1cc2cc(O)ccc2[nH]1 , answer whether its Melting temperature (Tm) shift meets or surpasses 1 degrees Celcius.
[A] f

[Q] Given the entry CCCCc1c(-c2ccc(O)cc2)[nH]c2nccnc12 , answer whether its Melting temperature (Tm) shift meets or surpasses 1 degrees Celcius.
[A] t

[Q] Given the entry Cc1[nH]c(/C=C2\C(=O)Nc3ccc(S(=O)(=O)N(C)c4cccc(Cl)c4)cc32)c(C)c1C(=O)N1CCN(C)CC1 , answer whether its Melting temperature (Tm) shift meets or surpasses 1 degrees Celcius.
[A] f

[Q] Given the entry Cc1cc(Nc2nc(-c3ccccc3)nc3ccccc23)n[nH]1 , answer whether its Melting temperature (Tm) shift meets or surpasses 1 degrees Celcius.
[A] f

[Q] Given the entry CCN(CC)CCNC(=O)c1c(C)[nH]c(/C=C2\C(=O)Nc3ccc(Cl)cc32)c1C , answer whether its Melting temperature (Tm) shift meets or surpasses 1 degrees Celcius.
[A] t

[Q] Given the entry CN(C)c1nc2c(Br)c(Br)c(Br)c(Br)c2[nH]1 , answer whether its Melting temperature (Tm) shift meets or surpasses 1 degrees Celcius.
[A] t

----------
Biological target: CDK2 + Cyclin E (Homo sapiens)
Construct: CDK2 (P24941); 1–299; His-tag; made in house; host or cells: Escherichia coli
Experiment: Differential Scanning Fluorimetry (DSF) Tm shift
Format: binding
Details: CDK2 + Cyclin E; 2 µM protein, 10 µM inhibitor; average of 3 experiments, each in duplicate
The label depends only on Melting temperature (Tm) shift: Met if it is at least 0.7 degrees Celcius, Not met if it is smaller.

N#CCCc1ccc2c(c1)-c1[nH]c3ccc([N+](=O)[O-])cc3c1CC(=O)N2 | Not met
O=C(c1ccc(Nc2nccc(-c3cc4ccccc4s3)n2)cc1)N1CCC(N2CCCC2)CC1 | Not met
CCN(CC)CCNC(=O)c1c(C)[nH]c(/C=C2\C(=O)Nc3ccc(Cl)cc32)c1C | Not met
O=C1Nc2ccccc2C1=C1Nc2ccccc2C1=NOCCC(O)CO (stereo not shown) | Met
O=C1Nc2ccc3ncsc3c2/C1=C/c1cnc[nH]1 | Met
CC(C)n1cnc2c(NCc3ccccc3O)nc(NCCCO)nc21 | Met

[Q] Given the entry O=C1NC(=O)C(c2cn(CCCn3ccnc3)c3ccccc23)=C1Nc1ccccc1 , answer whether its Melting temperature (Tm) shift meets or surpasses 0.7 degrees Celcius.
[A] Not met

[Q] Given the entry Cl.Cl.NCCNc1ncc(C(N)=O)c(Nc2cccc(C(F)(F)F)c2)n1 , answer whether its Melting temperature (Tm) shift meets or surpasses 0.7 degrees Celcius.
[A] Not met

[Q] Given the entry CC(C)[C@H](CO)Nc1nc(Nc2cccc(Cl)c2)c2ncn(C(C)C)c2n1 , answer whether its Melting temperature (Tm) shift meets or surpasses 0.7 degrees Celcius.
[A] Met

[Q] Given the entry O=C1c2ccccc2-c2nc3nnnn3nc21 , answer whether its Melting temperature (Tm) shift meets or surpasses 0.7 degrees Celcius.
[A] Not met

[Q] Given the entry CCn1cnc2c(Nc3cccc(Cl)c3)nc(N[C@H]3CCCC[C@H]3N)nc21 [Cdk1 Inhibitor, CGP74514A] , answer whether its Melting temperature (Tm) shift meets or surpasses 0.7 degrees Celcius.
[A] Met

[Q] Given the entry N#Cc1c(-c2ccccc2)cc(-c2cc(Br)ccc2O)[nH]c1=O , answer whether its Melting temperature (Tm) shift meets or surpasses 0.7 degrees Celcius.
[A] Not met

----------
Target: SRC Catalytic Domain+SH2+SH3 (Homo sapiens, UniProt P12931)
Sequence (P12931 84-523 limits assumed): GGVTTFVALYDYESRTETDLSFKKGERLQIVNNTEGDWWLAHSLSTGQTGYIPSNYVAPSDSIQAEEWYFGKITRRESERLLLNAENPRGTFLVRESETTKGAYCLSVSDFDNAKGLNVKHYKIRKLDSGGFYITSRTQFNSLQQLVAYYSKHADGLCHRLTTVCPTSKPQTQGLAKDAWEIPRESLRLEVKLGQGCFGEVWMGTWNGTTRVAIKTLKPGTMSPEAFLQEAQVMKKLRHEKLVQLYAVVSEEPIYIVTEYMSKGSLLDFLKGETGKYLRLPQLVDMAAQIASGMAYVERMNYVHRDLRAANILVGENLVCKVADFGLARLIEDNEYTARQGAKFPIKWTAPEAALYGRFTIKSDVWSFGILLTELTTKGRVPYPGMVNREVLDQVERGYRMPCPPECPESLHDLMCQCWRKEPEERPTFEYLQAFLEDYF
Experiment: Differential Scanning Fluorimetry (DSF) Tm shift
Format: binding
Conditions: 2 µM protein, 10 µM inhibitor, average of 3 experiments, each in duplicate
Measured Melting temperature (Tm) shift determines class: low range: < 0.2 degrees Celcius; mid range: ≥ 0.2 degrees Celcius and < 1 degrees Celcius; high range: ≥ 1 degrees Celcius

Illustrative cases are given below, each with its answer.
CCN(CC)C(=O)c1ccc(Nc2nc(OCC3CCCCC3)c3[nH]cnc3n2)cc1 [Cdk2 Inhibitor IV, NU6140] | high range
Cc1cc(Nc2nc(-c3ccccc3)nc3ccccc23)n[nH]1 [GSK-3 Inhibitor XIII] | high range
COc1cc2ncnc(Nc3ccc(Oc4ccccc4)cc3)c2cc1OC [Src Kinase Inhibitor I] | high range
CN1C(=O)C(=C2Nc3ccccc3C2=NO)c2ccc(Br)cc21 [GSK-3 Inhibitor IX, Control, MeBIO] | low range
O=C1NC(=O)C(c2c[nH]c3ccccc23)=C1c1c[nH]c2ccccc12 [Bisindolylmaleimide IV] | low range

[Q] Which bin, given its Melting temperature (Tm) shift, does CN[C@@H]1C[C@H]2O[C@@](C)([C@@H]1OC)n1c3ccccc3c3c4c(c5c6ccccc6n2c5c31)C(=O)N[C@@H]4O [UCN-01] occupy?
[A] high range

[Q] Which bin, given its Melting temperature (Tm) shift, does Cc1nc(N)sc1-c1ccnc(Nc2cccc([N+](=O)[O-])c2)n1 [Cdk2/9 Inhibitor] occupy?
[A] mid range

[Q] Which bin, given its Melting temperature (Tm) shift, does c1cc(-c2cnn3cc(-c4ccc(OCCN5CCCCC5)cc4)cnc23)ccn1 [AMPK Inhibitor, Compound C] occupy?
[A] mid range
